Test system: UACC-257 melanoma
Assay: NCI-60 one-dose screen, 48 h (100 = growth as untreated, 0 = no growth, -100 = all killed)
Details: 10 µM unless noted
Compounds without any hit were thinned out: in the full panel of roughly 83,000, 20% have a hit.
Kindly supply the reported growth values for the records listed here.
Expressed in %, but write only the number.

Form field, growth with UACC-257 melanoma, item Cn1ccnc1C(=O)/C=C/c1ccc(CNC(=O)c2c(F)c(F)c(F)c(F)c2F)cc1 : 77

Form field, growth with UACC-257 melanoma, item COc1cccc(C(=O)Nc2cccc(C#Cc3cccc4[nH]nc(N)c34)c2)c1 : 82.8

Form field, growth with UACC-257 melanoma, item C#C[C@]1(O)CC[C@H]2[C@@H]3CC=C4c5sc(-c6ccc7c(c6)OCO7)nc5CC[C@]4(C)[C@H]3CC[C@@]21C : 17.7

Form field, growth with UACC-257 melanoma, item Cc1cc(C(NC(=O)CCCCCNc2cccc3c2C(=O)N(C2CCC(=O)NC2=O)C3=O)c2ccc3c(c2)OC(F)(F)O3)c(O)c2ncccc12 (centres undefined) : 98.5

Form field, growth with UACC-257 melanoma, item Cc1ccc(CSc2nc(-c3ccc(Cl)cc3)c(C#N)c(N3CCNCC3)n2)cc1 : 99.4

Form field, growth with UACC-257 melanoma, item COc1ccc(/C=C(\C#N)C(=O)N2c3ccccc3Sc3ccc(SC)cc32)cc1F : 93.1

Form field, growth with UACC-257 melanoma, item CCCn1cnc2c(c1=N)C(c1ccc(Cl)cc1)c1sc3c(CC)cccc3c1O2 (centres undefined) : 83.9

Form field, growth with UACC-257 melanoma, item COc1c(N2CC3CCCNC3C2)c(F)cc2c(=O)c(C(=O)N/N=C/c3c[nH]c4ccccc34)cn(C3CC3)c12 (centres undefined) : 121

Form field, growth with UACC-257 melanoma, item Cc1ccc2sc3c(c2c1)OC(N)=C(C#N)C3c1cccc(F)c1 (centres undefined) : 60.8

Recorded values, source PubChem BioAssay (NCI).
